Reported z-score values follow for various compounds
- Protocol notes: PSAC antagonists in infected red cells, primary screen, cell-based, P. falciparum Indochina, OD700, 2 h (AID 1155);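 also: lysis reports solute entry through the parasite surface anion channel PSAC; channel blockers reduce lysis of infected cells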
- Measurement setup: P. falciparum Indochina infected erythrocytes, osmotic lysis OD700; higher = more signal, called active from +8 up or from −8 down
Lab note: record the figure alone, no unit after it.

COc1cccc([C@H]2Oc3ccc(OC)cc3C(=NO[C@@H](C)c3cn([C@H](CO)Cc4ccccc4)nn3)[C@@H]2O)c1; 0.41

What value of measured z-score is listed for "CC(C)(C)N1C(=O)[C@H]2[C@H]3[C@H](O)[C@H](O)CC(=O)[C@H]3CC[C@H]2C1=O" ?
0.499

What value of measured z-score is listed for "COC(=O)[C@H]1[C@@H](O)[C@@]2(O)c3ccccc3O[C@@]2(c2ccccc2)[C@@H]1c1ccccc1" ?
0.454

What value of measured z-score is listed for CCOC(=O)[C@H](CC(C)C)NC(=O)CCC1CC(OC(=O)NCc2cccc3ccccc23)CC2(CCCC(COC(=O)NCCc3ccc(Cl)cc3)O2)O1 (some centres not stated) ?
0.0962

What value of measured z-score is listed for "CO[C@H]1COC(=O)[C@H](C)NC(=O)CC=C[C@@H](C)[C@H](OC)COC(=O)[C@@H](OCc2ccccc2)C=C[C@@H]1C" ?
0.101

What value of measured z-score is listed for CCOC(=O)[C@H](Cc1ccccc1)NC(=O)CCC1CC(OC(=O)NCc2cccc3ccccc23)CC2(CCCC(COC(=O)NCc3ccccc3)O2)O1 (some centres not stated) ?
0.55

What value of measured z-score is listed for "COC(=O)CC=C[C@@H](C)[C@@H](C=NOC[C@@H](O)[C@H]1O[C@@H]2OC(C)(C)O[C@@H]2[C@H]1O)NS(=O)(=O)c1ccc(C)cc1" ?
0.0216

----------
- Protocol notes: fission yeast growth modulation, primary screen, strain 972, OD600, 24 h, no modulator (AID 1090);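 also: basal condition with compound alone and no growth modifier present; test concentration not given here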
- Measurement setup: S. pombe 972 growth, higher = more signal, called active from +8 up or from −8 down
Metric name: z-score
Lab note: record the figure alone, no unit after it.

// worked examples, z-score included
CC(C)=CCCC(C)=CCON=C1C[C@@H](O)[C@@H](O)[C@@H]2[C@@H]3C(=O)N(Cc4ccccc4)C(=O)[C@@H]3CC[C@H]12; -1.58
O=C1CCCC(C2=CCCCC2=O)C1 (stereo not given); 0.65
CC(C)=CCCC(C)=CCON=C1C[C@@H](O)[C@@H](O)[C@@H]2[C@@H]3C(=O)N(Cc4ccccc4)C(=O)[C@@H]3CC[C@@H]12; -0.114

What value of measured z-score is listed for "COC(=O)C1=C(C)N(Cc2ccccc2)[C@]23O[C@](C(=O)OC)(C(=O)N2[C@@H]1c1ccccc1)C(C(=O)OC)=C3C(=O)OC" ?
-2.66

What value of measured z-score is listed for "C#CCCCON=C1C[C@@H](O)[C@@H](O)[C@@H]2[C@@H]3C(=O)N(CC)C(=O)[C@@H]3CC[C@@H]12" ?
0.267

----------
- System tested: NADPH oxidase 5 (Homo sapiens)
- Protocol notes: NOX5-dependent H2O2 signal modulators, primary screen, NOX inhibitor project, cell-based, HEK293-NOX5, Amplex Red fluorescence (AID 1161)
- Measurement setup: HEK293-NOX5, ionomycin, 45 min, higher = more signal
Metric name: z-score
Lab note: record the figure alone, no unit after it.

CC(CCN1CCCCc2nc(C)c(C)cc21)=NO[C@@H](C)c1cn([C@H](CO)Cc2ccccc2)nn1; -0.199
Cc1cc2c(nc1C)CCCCN2CC(C)ON=C1[C@H]2CCn3c(=O)n(-c4ccccc4)c(=O)n3[C@H]2[C@H](O)[C@@H]2O[C@H]12 (some centres undefined); 0.168
CO[C@H]1COC(=O)CC=C[C@H](C)[C@@H](OC)COC(=O)[C@@H](C)NC(=O)CC=C[C@@H]1C; -0.0966
CC(=O)O[C@H]1C2=CO[C@H](C)[C@H]3[C@H]4C5=C([C@H](O)[C@H]6O[C@H]6C5=O)[C@H](OC4C)[C@@]23C(=O)[C@@H]2O[C@@H]21 (some centres undefined); -0.242
COC(=O)[C@@H]1CC[C@H](C)[C@@H](c2ccc(C)cc2)N1C(=O)c1ccc(C=NO[C@@H](C)c2cn([C@H](CO)Cc3ccccc3)nn2)cc1; -3.8
CO[C@H]1COC(=O)CC=C[C@@H](C)[C@H](NS(=O)(=O)c2ccc(C)cc2)COC(=O)CCC[C@@H]1C; 0.428
COc1ccc(O[C@H]2C=C[C@@H](c3ccccc3)O[C@@H]2CON=C(C)CCC(=O)OC[C@H]2O[C@H](c3ccccc3)C=C[C@@H]2Oc2ccc(OC)cc2)cc1; -0.925
CCOC(=O)[C@H](CC(C)C)NC(=O)CCC1CC(OC(=O)NCCc2ccc(F)cc2)CC2(CCCC(COC(=O)NCCc3ccc(Cl)cc3)O2)O1 (some centres undefined); 1.33

What value of measured z-score is listed for COC(=O)[C@H](C)NC(=O)CCC1CC(OC(=O)NCc2ccc3c(c2)OCO3)CC2(CCCC(COC(=O)NCc3cccc(C(F)(F)F)c3)O2)O1 (some centres undefined) ?
1.15

What value of measured z-score is listed for "CC(C)CON=C1C[C@@H](O)[C@@H](O)[C@@H]2[C@@H]3C(=O)N(C4CCCCC4)C(=O)[C@@H]3CC[C@@H]12" ?
-0.143
